- measurement_protocol: Tissue viability, MTT assay on 3D reconstructed human epidermis after topical application
- Assay type: cell-based
- setup_conditions: human, GA concentration 3%; 24 hours; relative to untreated epidermis
readout_name: viability at 24 h, 3 % (%)

{"columns": ["compound", "recorded_result"],
 "data": [
  ["O=C(O)CO [GA-METEX, Glycolic acid]", 3.5]
]}
